Tested on: biotinyl-Phe-oxazolone
Assay: self-aminoacylation, catalytic enhancement (BFO) (fold over background); higher = more active; k-Seq, kA / k0A0; sequences stand for … in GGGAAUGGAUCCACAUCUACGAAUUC…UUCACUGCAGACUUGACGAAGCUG
This sample holds only a part of the variants without activity.
Hi, to clarify the labels: Y covers self-aminoacylation from 20 upward, N covers anything below 20.

{"columns": ["Chain", "Category"],
 "data": [
  ["CCACCCUUCAAGCUAUCGGUC [Fam1B.1 aminoacylation ribozyme variant]", "N"],
  ["GGUCACCUAGGUCAUCGGGUG [Fam2.2 aminoacylation ribozyme variant]", "Y"],
  ["AUUACCUUGGUCAUAGAGUGA [Fam2.1 aminoacylation ribozyme variant]", "Y"],
  ["CUACUUCAAACAAUCUGCCUG [Fam1A.1 aminoacylation ribozyme variant]", "N"],
  ["CCUCUCUUCAAGCAAUCGGUC [Fam1B.1 aminoacylation ribozyme variant]", "Y"],
  ["ACUCACCUAGGUAAUCGGGUG [Fam2.2 aminoacylation ribozyme variant]", "Y"],
  ["CUACUUCAAAAAAUCGAUCUG [Fam1A.1 aminoacylation ribozyme variant]", "N"]
]}

Data provenance: the supplement of paper PMC9233669
